# Study system: D(1A) dopamine receptor (Rattus norvegicus)
# Sequence (P18901 whole entry): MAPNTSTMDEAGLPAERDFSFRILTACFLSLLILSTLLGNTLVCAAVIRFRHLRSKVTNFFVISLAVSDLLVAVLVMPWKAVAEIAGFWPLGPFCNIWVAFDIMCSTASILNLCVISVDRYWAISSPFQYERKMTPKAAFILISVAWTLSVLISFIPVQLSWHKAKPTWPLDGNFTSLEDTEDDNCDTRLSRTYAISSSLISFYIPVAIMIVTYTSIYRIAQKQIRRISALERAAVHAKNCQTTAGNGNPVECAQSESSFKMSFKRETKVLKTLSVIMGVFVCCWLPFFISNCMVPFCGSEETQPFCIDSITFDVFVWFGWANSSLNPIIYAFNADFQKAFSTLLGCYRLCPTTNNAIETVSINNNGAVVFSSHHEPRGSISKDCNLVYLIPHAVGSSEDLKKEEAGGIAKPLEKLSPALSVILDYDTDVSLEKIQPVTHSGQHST
# Test protocol: In vitro affinity of compound towards dopamine (D1) receptor was determined by measuring their ability to displace [3H]SCH-23,390 from rat striatal homogenates
Measured attribute: Ki (nM)
Answers are plain numbers, in nM.

CN1CCc2cc(O)c(O)cc2[C@@H]2c3ccccc3CC[C@@H]21 = 1730

From here, focus on the item given below.
Q: Specify measured Ki for CN1CCc2cc(O)c(O)cc2[C@H]2c3ccccc3CC[C@@H]21 .
Ans: 68

---

# Study system: D(1A) dopamine receptor (Rattus norvegicus)
# Test protocol: Inhibition of [3H]SCH-23390 binding to rat striatal homogenate dopamine receptor D1
pKi: −log10 of the molar value.
Label scheme for pKi: lower than 6 is NOT MET, 6 and above is MET.

The following compounds have reported results that may help.
CN1CCc2cc(Cl)c(O)cc2C2c3ccccc3CCC21 (trans isomer) = MET
CN1CCc2cc(Cl)c(O)cc2[C@@H]2c3ccccc3CC[C@@H]21 (relative stereo) = MET
CN1CCc2cc(Cl)c(O)cc2[C@@H]2c3ccccc3CC[C@H]21 = MET
COc1cc2c(cc1O)CCN(C)[C@H]1CCc3ccccc3[C@H]21 = NOT MET

Now consider the entry below.
Q: Evaluate COc1cc2c(cc1O)[C@H]1c3ccccc3CC[C@@H]1N(C)CC2 : pKi at minimum 6?
Ans: MET
